Each entry below lists one item and its recorded normalized growth value.
test: chemical genetic growth profiling, strain panel (AID 1159580);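 note: tested at 20 µM; growth read once vehicle control cultures reached saturation at 30 °C; 1 = growth at the plate median or of vehicle wells; lower values mean less growth of the strain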; settings: S. cerevisiae deletion strains, growth OD, locus YOR136W, strain idh2, hits give low values
The campaign covered roughly 5,500 compounds. About 2,000 (36%) were called active. Another 18% or so got no clear call; they are omitted. This is one part of the list.
Reply with just the number.

Use the examples below as a reference point.
{"compound": "CC1CC2C3CC(F)C4=CC(=O)C=CC4(C)C3(F)C(O)CC2(C)C1C(=O)COC(=O)C(C)(C)C (centres undefined)", "normalized growth": 1.02}
{"compound": "CCCCCC1C(=O)CCC1CC(=O)O (centres undefined)", "normalized growth": 0.982}
{"compound": "C[C@@H]1CC2C3C[C@H](F)C4=CC(=O)C=C[C@]4(C)[C@@]3(F)[C@@H](O)C[C@]2(C)[C@@]1(O)C(=O)COC(=O)C(C)(C)C (some centres undefined)", "normalized growth": 1.01}

Now examine the next entry.
Task item: Need normalized growth of CC1(C)C(O)CC(O)C2(C)C1CC(O)C1(C)C2CCC2(C)C(c3ccoc3)OC(=O)C3OC321 (centres undefined) , thanks.
Reply: 1.03

Provenance of the data: PubChem BioAssay AID1159580
